Biological target: human recombinant H-PGDS (Homo sapiens, UniProt O60760)
Sequence (O60760 whole entry): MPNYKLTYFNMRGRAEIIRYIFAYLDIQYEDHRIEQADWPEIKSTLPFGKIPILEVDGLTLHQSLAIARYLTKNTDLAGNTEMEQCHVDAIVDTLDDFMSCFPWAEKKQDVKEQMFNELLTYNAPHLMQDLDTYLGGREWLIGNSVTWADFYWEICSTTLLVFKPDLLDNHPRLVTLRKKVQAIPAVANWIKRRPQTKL
Assay: Slightly modified fluorescence intensity h-PGDS TBA enzyme assay (1:40,000 enzyme, 40 second reaction, 1/2 log dilutions, top concentration typically 10 μM)
Assay type: biochemical
Conditions: slightly modified assay: 1:40,000 human recombinant H-PGDS
// assign satisfied if IC50 falls strictly below 7 nM, else not satisfied (ties count as not satisfied)

Ask: Please indicate whether the reported IC50 of COCCNC1CCC(NC(=O)c2ccc(-c3cccc(F)c3)nc2)CC1 (single isomer, unassigned) [Example 54] is strictly below 7 nM.
Reply: not satisfied

Ask: Please indicate whether the reported IC50 of CN1CCN(C(=O)[C@H]2CC[C@@H](NC(=O)c3ccc(-c4cccc(F)c4)nc3)C2)CC1 is strictly below 7 nM.
Reply: not satisfied

Ask: Please indicate whether the reported IC50 of CN(C)C[C@H]1C[C@@H](NC(=O)c2ccc(-c3cccc(F)c3)nc2)C1 is strictly below 7 nM.
Reply: not satisfied

Ask: Please indicate whether the reported IC50 of O=C(N[C@H]1CC[C@H](OCCO)CC1)c1ccc(-c2cccc(F)c2)nc1 is strictly below 7 nM.
Reply: satisfied

Ask: Please indicate whether the reported IC50 of CN1CCN(C2CCC(NC(=O)c3ccc(-c4cccc(F)c4)nc3)CC2)CC1 (single isomer, unassigned) [Example 52] is strictly below 7 nM.
Reply: not satisfied

Ask: Please indicate whether the reported IC50 of CN(C)C(=O)[C@H]1CC[C@H](NC(=O)c2ccc(-c3cccc(F)c3)nc2)CC1 is strictly below 7 nM.
Reply: satisfied

# credit: patent US20100173888A1
